The entries below come with measured glycan array binding signal (z-score) values attached.
molecular target: Gal(b1-3)GalNAc(b1-4)[Neu5Ac(a2-3)]Gal(b1-4)Glc; assay: glycan array binding signal (z-score within array); higher = stronger binding; settings: glycan notation: IUPAC condensed, linker removed
About 410 targets per protein were measured; listed, in parts, are those with the strongest signals and a random draw of the rest.

>  <BINDER>
DCIR1 (Mus musculus), Q9QZ15 (protein) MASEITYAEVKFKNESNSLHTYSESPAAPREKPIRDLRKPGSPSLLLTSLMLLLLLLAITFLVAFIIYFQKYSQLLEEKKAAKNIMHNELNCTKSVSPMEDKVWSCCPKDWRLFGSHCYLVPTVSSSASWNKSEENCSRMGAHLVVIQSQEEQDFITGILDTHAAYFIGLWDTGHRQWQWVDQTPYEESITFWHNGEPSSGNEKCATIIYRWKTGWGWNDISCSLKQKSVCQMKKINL

>  <glycan array binding signal (z-score)>
2.65

$$$$
>  <BINDER>
PNA (Arachis hypogaea), P02872 (protein) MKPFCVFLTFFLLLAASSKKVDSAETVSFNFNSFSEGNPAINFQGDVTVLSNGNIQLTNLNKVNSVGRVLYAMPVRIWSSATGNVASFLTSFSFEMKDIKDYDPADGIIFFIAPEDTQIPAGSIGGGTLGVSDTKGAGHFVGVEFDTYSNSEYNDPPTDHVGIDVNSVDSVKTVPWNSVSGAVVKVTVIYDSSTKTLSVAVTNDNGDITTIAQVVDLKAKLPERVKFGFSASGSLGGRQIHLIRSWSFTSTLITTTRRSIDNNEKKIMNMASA

>  <glycan array binding signal (z-score)>
3.91

$$$$
